# Tested System: UniProt:P37288
# Sequence (P37288 whole entry): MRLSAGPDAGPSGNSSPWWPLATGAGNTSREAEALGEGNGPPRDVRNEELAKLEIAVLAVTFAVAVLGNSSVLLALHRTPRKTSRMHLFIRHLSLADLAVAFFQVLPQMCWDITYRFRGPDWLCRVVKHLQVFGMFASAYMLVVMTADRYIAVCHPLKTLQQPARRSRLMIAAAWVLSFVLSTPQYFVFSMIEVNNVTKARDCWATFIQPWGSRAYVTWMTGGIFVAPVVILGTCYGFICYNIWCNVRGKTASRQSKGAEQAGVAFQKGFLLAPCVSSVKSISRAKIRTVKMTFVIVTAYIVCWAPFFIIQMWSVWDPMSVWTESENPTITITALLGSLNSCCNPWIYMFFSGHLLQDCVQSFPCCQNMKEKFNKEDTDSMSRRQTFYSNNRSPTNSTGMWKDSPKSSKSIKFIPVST
# Test Method Notes: Cellular in vitro assay for determining vasopressin receptor activity, V1a receptor cell line (CHO, aequorin luminescence)
# Stated Conditions: CHO cell line transfected with human V1a receptor; [Arg]-vasopressin at EC50 concentration; read-out: IC50 hV1a
For each of the compounds below, state its IC50.
One number for each entry, in nM.

Reference set, count: 5
Compound | Tested System | Readout Label | Measurement
CC1(NC(=O)c2ncccc2-n2cnc(Cn3nc(-c4ccc(Cl)cc4)n(C[C@H](O)C(F)(F)F)c3=O)n2)CC1 | UniProt:P37288 | IC50 | 4.4
O=C(c1ncccc1-n1cnc(Cn2nc(-c3ccc(Cl)cc3)n(C[C@@H](O)C(F)(F)F)c2=O)n1)N1CCC[C@H]1C(F)(F)F | UniProt:P37288 | IC50 | 460
Cc1ccc(CNC(=O)c2ccccc2-n2cnc(Cn3nc(-c4ccc(Cl)cc4)n(C[C@H](O)C(F)(F)F)c3=O)n2)o1 | UniProt:P37288 | IC50 | 5.65
O=C1CN(C(=O)c2nc(Cn3nc(-c4ccc(Cl)cc4)n(C[C@H](O)C(F)(F)F)c3=O)nn2-c2cnccc2C(=O)NCC(F)(F)F)CCN1 | UniProt:P37288 | IC50 | 9950
CC(C)(N)CNc1ccncc1-n1cnc(Cn2nc(-c3ccc(Cl)cc3)n(C[C@H](O)C(F)(F)F)c2=O)n1 | UniProt:P37288 | IC50 | 1950

Your task in this section: give IC50 for each listed record.
1. CC1(C(=O)Nc2ncccc2-n2cnc(Cn3nc(-c4ccc(Cl)cc4)n(C[C@H](O)C(F)(F)F)c3=O)n2)CCCO1 (stereo partly drawn)
2. CC(C)N(C(=O)c1ccccc1-n1cnc(Cn2nc(-c3ccc(Cl)cc3)n(C[C@H](O)C(F)(F)F)c2=O)n1)C(C)C
3. CNC(=O)c1cc(F)ccc1-n1cnc(Cn2nc(-c3ccc(Cl)cc3)n(C[C@H](O)C(F)(F)F)c2=O)n1
4. NC(=O)CCNc1ccncc1-n1cnc(Cn2nc(-c3ccc(Cl)cc3)n(C[C@H](O)C(F)(F)F)c2=O)n1

1. 125
2. 14
3. 9.85
4. 840
